Test system: BaF3 parental cells
Test: BaF3 parental cell proliferation (Cell Titer Glo)
Format: cell-based
Conditions: Mus musculus, Table 3
Experimental: BaF3 parental line was obtained from the DSMZ repository. BaF3 lines transfected with PIM1 or PIM2 were generated. Mouse IL-3 was purchased from R&D Systems. G418 was purchased from Clontech. […] BaF3 parental cells, BaF3 PIM1 cells, BaF3 PIM2 cells, and MM1.S cells were seeded at 2 k/well, 5 k/well, 5 k/well, and 10 k/well respectively, in a 384-well plate, at 45 μL/well. […] IC50/EC50 values for the test compound were calculated.
Some compounds, each annotated with its measured IC50.
The reply should consist of the numeric value with the unit placed after it.

{"compound": "Nc1sc(-c2c(F)cccc2F)nc1C(=O)Nc1cnccc1N1CCC[C@H](N)C1", "measured-target": "BaF3 parental cells", "IC50": "8 µM"}

Could you now look at the following compound, please?
[Q] Give the measured IC50 of O=C(Nc1c[nH]c2ncccc12)c1cnn2ccc(NCCc3ccccc3)nc12 [Compound PIMi, reference compound] .
[A] 12 µM

---

Target: PIM1 (Homo sapiens)
Sequence (P11309 whole entry): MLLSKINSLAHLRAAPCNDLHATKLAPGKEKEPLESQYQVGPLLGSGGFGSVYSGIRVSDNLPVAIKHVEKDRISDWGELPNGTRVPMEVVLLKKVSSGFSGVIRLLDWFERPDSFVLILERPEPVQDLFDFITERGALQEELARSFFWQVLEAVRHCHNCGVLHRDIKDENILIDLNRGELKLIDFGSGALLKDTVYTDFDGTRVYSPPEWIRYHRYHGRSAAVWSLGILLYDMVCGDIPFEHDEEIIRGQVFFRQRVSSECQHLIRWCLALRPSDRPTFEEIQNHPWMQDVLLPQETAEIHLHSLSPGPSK
Some molecules, each annotated with its measured pKi.
Keep it numeric: pKi is minus log10 of the concentration in mol/L.

{"molecule": "Nc1sc(-c2cccc(Cl)c2)nc1C(=O)Nc1cnccc1N1CCC[C@H](N)C1", "measured-target": "PIM1 (Homo sapiens)", "pKi": 9.99}
{"molecule": "CC(C)NC(=O)c1ccc(F)c(-c2nc(C(=O)Nc3cnccc3N3CCC[C@@H](N)C3)c(N)s2)c1", "measured-target": "PIM1 (Homo sapiens)", "pKi": 9.68}
{"molecule": "Nc1scnc1C(=O)Nc1cnccc1N1CCC[C@H](N)C1", "measured-target": "PIM1 (Homo sapiens)", "pKi": 7.44}
{"molecule": "CC(C)c1nc(C(=O)Nc2cnccc2N2CCC[C@H](N)C2)c(N)s1", "measured-target": "PIM1 (Homo sapiens)", "pKi": 8.66}
{"molecule": "COc1cc(F)c(-c2nc(C(=O)Nc3cnccc3N3CCC[C@H](N)C3)c(N)s2)c(F)c1", "measured-target": "PIM1 (Homo sapiens)", "pKi": 10.92}

[Q] Give the measured pKi of "Nc1sc(Cc2ccccc2)nc1C(=O)Nc1cnccc1N1CCC[C@H](NC(=O)C(F)(F)F)C1" .
[A] 7.53

[Q] Can you handle "CN(C)C(=O)c1ccc(F)c(-c2nc(C(=O)Nc3cnccc3N3CCC[C@H](N)C3)cs2)c1" next?
[A] 8.40

[Q] Can you handle "CN(C)Cc1nc(C(=O)Nc2cnccc2N2CCC[C@H](N)C2)c(N)s1" next?
[A] 6.38

[Q] Can you handle "Nc1sc(-c2cccnc2)nc1C(=O)Nc1cnccc1N1CCC[C@H](N)C1" next?
[A] 9.30

[Q] Can you handle Nc1sc(C2CCNC2)nc1C(=O)Nc1cnccc1N1CCCC(N)C1 (centres unmarked) next?
[A] 7.67

[Q] Can you handle "CN(C)C(=O)c1ccc(F)c(-c2nc(C(=O)Nc3cnccc3N3CCC[C@H](N)C3)c(N)s2)c1" next?
[A] 10.02

---

Biological target: PIM2 (Homo sapiens)
Sequence (Q9P1W9 whole entry): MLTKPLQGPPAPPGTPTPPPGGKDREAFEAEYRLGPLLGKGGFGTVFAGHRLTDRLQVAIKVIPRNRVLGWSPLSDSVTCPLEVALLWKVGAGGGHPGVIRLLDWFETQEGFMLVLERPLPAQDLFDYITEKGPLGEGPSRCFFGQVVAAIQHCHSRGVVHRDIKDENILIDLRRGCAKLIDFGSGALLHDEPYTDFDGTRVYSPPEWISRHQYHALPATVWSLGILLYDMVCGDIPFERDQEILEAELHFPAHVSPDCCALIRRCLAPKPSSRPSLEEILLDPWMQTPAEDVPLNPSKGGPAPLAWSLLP
endpoint: log10(Ki) (log10 of the value in nM)
In plain terms, each number is the log10 of measured Ki in nM.

[Q] Give the measured log10(Ki) of "Nc1sc(-c2ccccc2)nc1C(=O)Nc1cccnc1" .
[A] 2.29

[Q] Can you handle "CCOc1ccc(F)c(-c2nc(C(=O)Nc3cnccc3N3CCC[C@H](N)C3)c(N)s2)c1F" next?
[A] -0.82

[Q] Can you handle "Nc1scnc1C(=O)Nc1cnccc1N1CCC[C@H](N)C1" next?
[A] 1.71

[Q] Can you handle "Nc1sc(-c2cccc(Cl)c2)nc1C(=O)Nc1cnccc1N1CCC[C@H](N)C1" next?
[A] -0.39

[Q] Can you handle "CCCCOc1ccc(F)c(-c2nc(C(=O)Nc3cnccc3N3CCC[C@H](N)C3)c(N)s2)c1F" next?
[A] -0.36

[Q] Can you handle "Nc1sc(Cc2ccccc2)nc1C(=O)Nc1cnccc1N1CCC[C@H](NC(=O)C(F)(F)F)C1" next?
[A] 2.41

[Q] Can you handle "Nc1sc(-c2ccc(Cl)cc2)nc1C(=O)Nc1cnccc1N1CCC[C@H](N)C1" next?
[A] 0.03

---

UniProt Q9P1W9 measurements of pKi, listed per entry.
Keep it numeric: pKi is minus log10 of the concentration in mol/L.

These recorded examples may help you get a feel for the data.
{"molecule": "Nc1sc(-c2cnc3ccccn23)nc1C(=O)Nc1cnccc1N1CCC[C@H](N)C1 [Example 57]", "pKi": 8.54}
{"molecule": "Nc1sc(Cc2ccccc2)nc1C(=O)Nc1cnccc1N1CCC[C@H](N)C1 [Example 38]", "pKi": 7.47}
{"molecule": "Nc1sc(-c2ccccc2F)nc1C(=O)Nc1cnccc1N1CCC[C@H](N)C1 [Example 1]", "pKi": 10.17}
{"molecule": "Nc1sc(-c2cc(Br)ccc2Cl)nc1C(=O)Nc1cnccc1N1CCC[C@H](N)C1 [Example 5]", "pKi": 9.31}
{"molecule": "CC(C)NC(=O)c1ccc(F)c(-c2nc(C(=O)Nc3cnccc3N3CCC[C@@H](N)C3)c(N)s2)c1 [Example 53]", "pKi": 9.08}
{"molecule": "Nc1sc(-c2cc(F)ccc2F)nc1C(=O)Nc1cnccc1N1CCC[C@H](N)C1 [Example 41]", "pKi": 9.68}
{"molecule": "Nc1sc(-c2ncccc2F)nc1C(=O)Nc1cnccc1N1CCC[C@H](N)C1 [Example 66]", "pKi": 10.05}

[Q] Give the measured pKi of CN(C)Cc1nc(C(=O)Nc2cnccc2N2CCC[C@H](N)C2)c(N)s1 [Example 21] .
[A] 6.62

---

Molecular target: PIM3 (Homo sapiens)
Some compounds, each annotated with its measured pKi.
Keep it numeric: pKi is minus log10 of the concentration in mol/L.

These recorded examples may help you get a feel for the data.
{"chem-smiles": "Nc1sc(-c2c(F)cccc2F)nc1C(=O)Nc1cnccc1N1C[C@@H](N)C[C@@H](F)C1", "pKi": 9.61}
{"chem-smiles": "Nc1sc(-c2ccccc2Cl)nc1C(=O)Nc1cnccc1N1CCC[C@H](N)C1", "pKi": 10.69}
{"chem-smiles": "CC(C)Oc1ccc(F)c(-c2nc(C(=O)Nc3cnccc3N3CCC[C@H](N)C3)c(N)s2)c1F", "pKi": 10.15}
{"chem-smiles": "Nc1sc(-c2cc(Br)ccc2Cl)nc1C(=O)Nc1cnccc1N1CCC[C@H](N)C1", "pKi": 10.30}
{"chem-smiles": "Cc1ccccc1-c1nc(C(=O)Nc2cnccc2N2CCC[C@H](N)C2)c(N)s1", "pKi": 10.43}
{"chem-smiles": "CCNC(=O)Nc1ccc(-c2nc(C(=O)Nc3cnccc3N3CCC[C@H](N)C3)c(N)s2)cc1", "pKi": 10.66}
{"chem-smiles": "Nc1sc(-c2c(F)cccc2F)nc1C(=O)Nc1cnccc1N1CCC[C@H](O)C1", "pKi": 10.21}

[Q] Give the measured pKi of "Nc1sc(-c2ccccc2F)nc1C(=O)Nc1cnccc1N1C[C@@H](N)C[C@@H](F)C1" .
[A] 9.49

---

Target: BaF3 PIM2 cells (Homo sapiens, UniProt Q9P1W9)
Sequence (Q9P1W9 whole entry, change not shown): as the sequence (Q9P1W9 whole entry) above
Assay: BaF3 PIM2 cell proliferation (Cell Titer Glo)
Assay type: cell-based
Conditions: incubated overnight; read-out: Prolif BaF3_PIM2 (IC50)
Some compounds, each annotated with its measured GI50.
Form entry: value (µM) — number only.

These recorded examples may help you get a feel for the data.
{"chem-smiles": "CCOc1ccc(F)c(-c2nc(C(=O)Nc3cnccc3N3CCC[C@H](N)C3)c(N)s2)c1F", "result-units": "µM", "GI50": 2.4}
{"chem-smiles": "CC(C)Oc1ccc(F)c(-c2nc(C(=O)Nc3cnccc3N3CCC[C@H](N)C3)c(N)s2)c1F", "result-units": "µM", "GI50": 4.3}
{"chem-smiles": "Nc1sc(-c2ccccc2OC(F)(F)F)nc1C(=O)Nc1cnccc1N1CCC[C@H](N)C1", "result-units": "µM", "GI50": 3.3}
{"chem-smiles": "CCCOc1ccc(F)c(-c2nc(C(=O)Nc3cnccc3N3CCC[C@H](N)C3)c(N)s2)c1F", "result-units": "µM", "GI50": 3.9}
{"chem-smiles": "Nc1sc(-c2ncccc2F)nc1C(=O)Nc1cnccc1N1CCC[C@H](N)C1", "result-units": "µM", "GI50": 2.1}
{"chem-smiles": "Nc1sc(-c2ccccc2F)nc1C(=O)Nc1cnccc1N1C[C@@H](N)C[C@@H](F)C1", "result-units": "µM", "GI50": 10.4}
{"chem-smiles": "Nc1sc(-c2cc(Cl)ccc2F)nc1C(=O)Nc1cnccc1N1CCC[C@H](N)C1", "result-units": "µM", "GI50": 1.8}
{"chem-smiles": "Nc1sc(-c2cc(F)ccc2F)nc1C(=O)Nc1cnccc1N1CCC[C@H](N)C1", "result-units": "µM", "GI50": 3.9}
{"chem-smiles": "Nc1sc(-c2ccc(F)cc2F)nc1C(=O)Nc1cnccc1N1CCC[C@H](N)C1", "result-units": "µM", "GI50": 2.1}

Could you now look at the following compound, please?
[Q] Give the measured GI50 of "Nc1sc(-c2c(Cl)cccc2Cl)nc1C(=O)Nc1cnccc1N1CCC[C@H](N)C1" .
[A] 6.5
